# ASSAY_NOTES: Neurotoxicity in ip dosed Albino mouse assessed as minimal motor impairment after 4 hrs by rotarod test
# Format: toxicity, organism-based
# EXPERIMENTAL_CONDITIONS: in vivo
Each record here notes measured TD50 at 4 h.
OUTCOME_MEASURE: TD50 at 4 h

> print(dat)
                                 smiles.str  outcome.measure  test.value
1  C/C(=N/NC(=O)Nc1nc(-c2ccc(C)cc2)cc(-c2ccc(F)cc2)n1)c1ccc(Cl)cc1      TD50 at 4 h   300 mg/kg
2         O=C1NC(=O)C(c2ccccc2)(c2ccccc2)N1      TD50 at 4 h   100 mg/kg
3  COc1ccc(-c2cc(-c3ccc(Cl)cc3)nc(NC(=O)N/N=C\c3cccc(Cl)c3)n2)cc1OC      TD50 at 4 h   300 mg/kg
4  COc1ccc(-c2cc(-c3ccc(F)cc3)nc(NC(=O)N/N=C\c3ccc([N+](=O)[O-])cc3)n2)cc1OC      TD50 at 4 h   300 mg/kg
5  C/C(=N/NC(=O)Nc1nc(-c2ccc(C)cc2)cc(-c2ccc(F)cc2)n1)c1ccc([N+](=O)[O-])cc1      TD50 at 4 h   100 mg/kg
6            CCC1(c2ccccc2)C(=O)NC(=O)NC1=O      TD50 at 4 h   300 mg/kg
7  C/C(=N/NC(=O)Nc1nc(-c2ccc(C)cc2)cc(-c2ccc(Cl)cc2)n1)c1ccc([N+](=O)[O-])cc1      TD50 at 4 h   100 mg/kg
8  C/C(=N/NC(=O)Nc1nc(-c2ccc(F)cc2)cc(-c2ccc([N+](=O)[O-])cc2)n1)c1ccc(C)cc1      TD50 at 4 h   300 mg/kg

====

Each record here notes measured ED50.
# Tested on: Mus musculus
# ASSAY_NOTES: Anticonvulsant activity in ip dosed Albino mouse assessed as protection against scPTZ-induced seizure after 0.5 hrs
# Type: functional
OUTCOME_MEASURE: ED50 (mg/kg)

> print(dat)
                                   compound  unit.text  test.value
1  C/C(=N/NC(=O)Nc1nc(-c2ccc(C)cc2)cc(-c2ccc(Cl)cc2)n1)c1ccc([N+](=O)[O-])cc1      mg/kg         300
2  COc1ccc(-c2cc(-c3ccc(F)cc3)nc(NC(=O)N/N=C\c3ccc([N+](=O)[O-])cc3)n2)cc1OC      mg/kg         300
3  COc1ccc(-c2cc(-c3ccc(F)cc3)nc(NC(=O)N/N=C(/C)c3ccc(C)cc3)n2)cc1      mg/kg         300
4  COc1ccc(-c2cc(-c3ccc(Cl)cc3)nc(NC(=O)N/N=C\c3ccc([N+](=O)[O-])cc3)n2)cc1OC      mg/kg         100
5  CCC1(C)CC(=O)NC1=O (centres undefined) [ETHOSUXIMIDE]      mg/kg         100
6  C/C(=N/NC(=O)Nc1nc(-c2ccc(C)cc2)cc(-c2ccc(Cl)cc2)n1)c1ccc(Cl)cc1      mg/kg         300
7  C/C(=N/NC(=O)Nc1nc(-c2ccc(C)cc2)cc(-c2ccc(F)cc2)n1)c1ccc(Cl)cc1      mg/kg         100
8  C/C(=N/NC(=O)Nc1nc(-c2ccc(F)cc2)cc(-c2ccc([N+](=O)[O-])cc2)n1)c1ccc(C)cc1      mg/kg         300
9  COc1ccc(/C(C)=N\NC(=O)Nc2nc(-c3ccc(F)cc3)cc(-c3ccc([N+](=O)[O-])cc3)n2)cc1      mg/kg         100
